Cited source: PubChem BioAssay (NCI)

test system: LOX IMVI melanoma; test: NCI tumour cell line growth inhibition, 48 h
resultType: TGI

{"compound": "COC(=O)CCc1ccc2c(c1)[C@H](C(=O)OC)[C@@H](c1ccc(O)cc1)O2", "TGI": "> 100 µM"}
{"compound": "CC(=O)NC(CC(C)C)C(=O)NC(CC(C)C)C(=O)NC(C=O)CCCN=C(N)N (stereo not drawn)", "TGI": "> 100 µM"}
{"compound": "O=C(c1cccs1)N(C(=S)N1CCN(c2ccccc2)CC1)C1CCCCC1", "TGI": "> 100 µM"}
{"compound": "CCC(=O)OC1CCC2C3CCC(=O)OC3C(C)(CCC(=O)O)CC12C (stereo not drawn)", "TGI": "> 100 µM"}
{"compound": "COc1ccc(Nc2nc3c(N)cc(C(F)(F)F)cc3nc2-c2ccccc2)cc1OC", "TGI": "> 100 µM"}
{"compound": "CSc1ncnc2c1cnn2Cc1cn(CCCCO)nn1", "TGI": "> 100 µM"}
{"compound": "CC(C)=CC(=O)OC1C(CO)OC(Oc2cc(O)c3c(=O)cc(-c4ccc(O)c(O)c4)oc3c2)C(OC2OC(C)C(O)C(O)C2O)C1O (stereo not drawn)", "TGI": "> 100 µM"}
{"compound": "O=Cc1cn(Cc2ccc(Cl)cc2)c2ccccc12", "TGI": "> 95 µM"}

GET /value?item= Cc1cc(C(C)C)cc(O)c(=O)c1 &field=TGI returns > 100 µM

GET /value?item= CCCCCCCC(=O)SCC/C=C/[C@@H]1CC(=O)NCc2cccc(n2)CN(Cc2ccc3ccccc3c2)CC(=O)N[C@@H](C(C)C)C(=O)O1 &field=TGI returns > 100 µM

###

Listing of entries alongside the reported TGI.
system: SF-295 CNS; assay: NCI tumour cell line growth inhibition, 48 h

# annotated cases, reported TGI shown
{"compound": "CCOC(=O)/C(=C\\NCc1ccc2c(c1)OCO2)c1nc2ccccc2[nH]1", "TGI": "> 100 µM"}
{"compound": "CC(=O)OCC1(C)C(OC(C)=O)CCC2(C)C(CC(OC(C)=O)C3=CCOC3=O)C(O)(CO)CCC12 (stereo unspecified)", "TGI": "> 100 µM"}
{"compound": "CC(=O)OC1Oc2ccccc2-c2oc(=O)c(-c3ccc(F)cc3)cc21 (stereo unspecified)", "TGI": "> 100 µM"}
{"compound": "CCCCCCCCCCn1cccc1/C=C/c1ccc(/C=C/c2cccn2CCCCCCCCCC)cc1", "TGI": "> 100 µM"}
{"compound": "COc1ccc2c(c1)[n+]([O-])c(C#N)c(NC(=O)c1cccs1)[n+]2[O-]", "TGI": "> 100 µM"}

Kindly review the next compound as well.
GET /value?item= O=C(CCc1ccc(O)c(O)c1)NCCc1cc(O)cc(OCc2ccccc2)c1 &field=TGI returns > 100 µM

###

Listing of entries alongside the reported GI50.
tested on: CCRF-CEM leukemia; test: NCI tumour cell line growth inhibition, 48 h

# annotated cases, reported GI50 shown
{"compound": "Cc1ccc(NC2=N[C@]34CC(=O)CC[C@]3(C)[C@H]3CC[C@]5(C)C(=O)CC[C@H]5[C@@H]3C[C@@H]4S2)c(C)c1", "GI50": "2.45 µM"}
{"compound": "O=C(Nc1cccc(Cl)c1)Nc1nccs1", "GI50": "27 µM"}
{"compound": "Nn1c2c(c3ccccc3c1=O)C(=O)c1ccccc1-2", "GI50": "> 50 µM"}

Kindly review the next compound as well.
GET /value?item= CCOC(=O)/C=C1/SC(N2CCCCC2)C(=O)N1CC (centres undefined) &field=GI50 returns > 100 µM

###

tested on: MDA-MB-231 breast; assay: NCI tumour cell line growth inhibition, 48 h
resultType: TGI

{"molecule": "CCCN(CCC)c1ccc(CO)c(Cl)c1", "testedSystem": "MDA-MB-231 breast", "observedResult": "> 68.4 µM"}
{"molecule": "COC(=O)C#Cc1cccc(OC)c1OC", "testedSystem": "MDA-MB-231 breast", "observedResult": "> 100 µM"}
{"molecule": "Nc1ccc(C(=O)NN2C(=O)[C@H](Cl)C2c2ccc(Cl)cc2)cc1 (some centres undefined)", "testedSystem": "MDA-MB-231 breast", "observedResult": "3.55 µM"}
{"molecule": "C/C=C/[C@@H](C(=O)OC)N1C(=O)c2ccccc2[C@H]1O", "testedSystem": "MDA-MB-231 breast", "observedResult": "> 100 µM"}
{"molecule": "CCOC(=O)/C(SC#N)=C(/N)N1CCCC1", "testedSystem": "MDA-MB-231 breast", "observedResult": "> 100 µM"}

GET /value?item= CC(=O)N1CCC(Nc2cc(C(=O)NC[C@H](O)CN3CCc4ccccc4C3)ncn2)CC1 &field=TGI returns > 100 µM

GET /value?item= COc1cccc2c(Nc3ccc(S(=O)(=O)N=C(N)N)cc3)c3ccc([N+](=O)[O-])cc3nc12 &field=TGI returns 18 µM

GET /value?item= C=CCc1cccc2cc(C(N)=O)c(=N)oc12 &field=TGI returns > 100 µM

GET /value?item= CN1CCN(CC(=O)N2c3ccccc3Sc3cc4ccccc4cc32)CC1 &field=TGI returns 27.7 µM

###

tested on: IGROV1 ovarian; assay: NCI tumour cell line growth inhibition, 48 h
resultType: GI50

{"smiles": "CN(C)CCCNCc1ccc(-c2ccc(F)c(Cl)c2)o1", "observedResult": "13.5 µM"}
{"smiles": "CCCCCCCC(=O)SCC/C=C/[C@@H]1CC(=O)NCc2cccc(n2)CN(Cc2ccc3ccccc3c2)CC(=O)N[C@@H](C(C)C)C(=O)O1", "observedResult": "44.4 µM"}
{"smiles": "CC(C)OC(=O)c1cc(NS(=O)(=O)c2ccc3ccccc3c2)cc(C(=O)OC(C)C)c1", "observedResult": "35.2 µM"}
{"smiles": "O=C(N/N=C(\\CN1CCN(c2cc3[nH]cc(C(=O)O)c(=O)c3cc2F)CC1)c1ccc(Cl)cc1)c1ccncc1", "observedResult": "3.32 µM"}
{"smiles": "C=CC(=O)N1C[C@H](COc2nc(Nc3cnn(C)c3)nc3[nH]cc(Cl)c23)[C@@H](OC)C1", "observedResult": "0.438 µM"}

Kindly review the next compound as well.
Sample CC(=O)N1CCC(Nc2cc(C(=O)NC[C@H](O)CN3CCc4ccccc4C3)ncn2)CC1 , system: IGROV1 ovarian. Its GI50 is > 100 µM

###

tested on: DMS 273 small cell lung; test: NCI tumour cell line growth inhibition, 48 h
resultType: TGI

{"molecule": "O=C(/C=C/c1ccc(Br)cc1)c1ccc(NCc2nc3ccccc3[nH]2)cc1", "TGI": "> 54.6 µM"}
{"molecule": "Cc1nc2sccn2c1C(=O)N/N=C1\\SCC(=O)N1C", "TGI": "> 100 µM"}
{"molecule": "CCCCCCCCCCC(O)CCCCCCC(=O)O (stereo not given)", "TGI": "55.6 µM"}

GET /value?item= CC(=O)NNc1nc(C)c(C(=O)/C=C/c2cccc([N+](=O)[O-])c2)s1 &field=TGI returns > 100 µM

GET /value?item= Nc1ccc(S(=O)(=O)Nc2cnc3ccccc3n2)cc1 &field=TGI returns > 100 µM

###

system: HOP-62 NSCLC; assay: NCI tumour cell line growth inhibition, 48 h
resultType: TGI (µM)
Unit µM implied. Number only.

{"compound": "O=C(Nc1ccc([As]=[As]c2ccc(NC(=O)c3ccccc3)cc2)cc1)c1ccccc1 (stereo not drawn)", "readingUnit": "µM", "TGI": 2.64}

GET /value?item= CCOC(=O)/C=C\c1c(Cl)n(-c2ccccc2)c(=O)n(-c2ccccc2)c1=O &field=TGI returns 40

GET /value?item= Cc1cc(Nc2ccc3c(c2)OCO3)c2cc3c(cc2n1)OCO3 &field=TGI returns 20.3

GET /value?item= CC(=O)OC1CCC2(C)C(CCC3C4CC=C(C5(C)OCCO5)C4(C)CCC32)C1 (stereo not drawn) &field=TGI returns 44.1

GET /value?item= COc1ccc(Nc2nc3cc(C(F)(F)F)ccc3nc2C(=O)O)cc1 &field=TGI returns 30.4

GET /value?item= COc1ccc2c(c1)NC(=O)CN2c1nc(NC2CC2)nc2ccccc12 &field=TGI returns 10.5

GET /value?item= Cc1cc(O)c(C=O)c(C)c1CCC1(C)C=Cc2cc(O)ccc2O1 (stereo not drawn) &field=TGI returns 43.2

GET /value?item= O=C(CCCCN1CCOCC1)Nc1ccc(Cn2nnc3c2C(=O)c2nnn(Cc4ccc(NC(=O)CCCCN5CCOCC5)cc4)c2C3=O)cc1 &field=TGI returns 1.49

GET /value?item= Cc1nn(C(=O)c2ccccc2O)c2c1C(c1ccco1)SC(N)=N2 (stereo not drawn) &field=TGI returns 6.8

GET /value?item= Cc1cc(Oc2ccccc2)ccc1Nc1ncnc2ccc(-c3cnc(Cl)c(NS(C)(=O)=O)c3)cc12 &field=TGI returns 18.3

GET /value?item= O=C1N[C@@H]2[C@@H](O)[C@@H](O)[C@H](O)C[C@H]2c2cc3c(c(O)c21)OCO3 &field=TGI returns 0.883

GET /value?item= COc1cc(-c2csc(NC(=O)Nc3ccc(Cl)c(C(F)(F)F)c3)n2)cc(OC)c1OC &field=TGI returns 4.57

GET /value?item= COC(=O)C1=CN(CC2=CC(=O)C(C)=CC2=O)C=C(C(=O)OC)C1c1cc(OC)ccc1OC &field=TGI returns 38
